Biological target: Gamma-secretase
Assay: Inhibition of amyloid beta protein production in transfected H4 (neuroglioma) cells expressing […] constructs.
endpoint: pIC50
Bear in mind: pIC50 is minus log10 of a mol/L concentration; give just that figure.

[
  {
    "compound": "CC(=O)[C@H](O)[C@H](CC1CCCCC1)NC(=O)[C@H](CC(C)C)NC(=O)Cc1ccccc1",
    "pIC50": 6.05
  }
]

Asked: Could you please provide reported pIC50 for `CCCC(=O)[C@H](O)[C@H](CC1CCCCC1)NC(=O)[C@H](CC(C)C)NC(=O)Cc1ccccc1` ? Thanks!
Given back: 6.22

Asked: Could you please provide reported pIC50 for `CCOC(=O)[C@H](O)[C@H](CC1CCCCC1)NC(=O)[C@H](CC(C)C)NC(=O)CCC(C)C` ? Thanks!
Given back: 5.82

Asked: Could you please provide reported pIC50 for `CC(=O)[C@H](O)[C@H](CC1CCCCC1)NC(=O)[C@H](CC(C)C)NC(=O)CCC(C)C` ? Thanks!
Given back: 6.21

###

Target: Gamma-secretase
Assay: Inhibition of amyloid beta protein production in transfected H4 (neuroglioma) cells expressing […] constructs.
# reported IC50; entries follow
State just the number; it will be interpreted in µM.

Use these answered entries as a reference point.
[
  {
    "compound": "CC(C)C[C@H](NC(=O)Cc1ccccc1)C(=O)N[C@@H](CC1CCCCC1)[C@@H](O)C(=O)c1ccccc1",
    "numeric.result": 0.9
  },
  {
    "compound": "CCOC(=O)[C@H](O)[C@H](CC1CCCCC1)NC(=O)[C@H](CC(C)C)NC(=O)Cc1ccc(F)cc1",
    "numeric.result": 1.8
  }
]

Please look at the following compound next.
Asked: Could you please provide reported IC50 for `CCOC(=O)[C@H](O)[C@H](CC1CCCCC1)NC(=O)[C@H](CC(C)C)NC(=O)Cc1ccccc1` ? Thanks!
Given back: 1.6
